Reference source for all entries: the domain aggregation screens of Martell et al. (2025)

experiment: soluble fraction after stress (log2 fold change); higher = more stays soluble; pooled small domains, quantitative proteomics; conditions: stress: 75 degC;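 note: 20 min heating vs room temperature control held 20 min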
quantityKind: soluble fraction (log2)

Sample records with soluble fraction (log2):
seqString | measurement
HMSHSDMEEWTDAVRSRRKKLGLTQVQIARRLGVTSHHFSQIESGRTIPSASLQIEIDRLLKNWND | -1.73
HMSFSPYLVRVSITDLNIRKGPGTNYAKTGKFTGKGVFTIVEMQTGKGSDTGWGRLKSGAGWISLDYTEKI | -3.47
HMSTPLPTGLPRGTIIEYTVQTDETLAIIAAKFNSTVDDIMTRNKITDPNTIYAGQILKVAINLVTP | -1.62
HMELDMTFGEKIQKLRKESGLSQEELSYQLGVSRQAISKWERDSGYPETEKIVRMSKIFDVTLDYLLNE | -0.582
HMEETGFYIKLQDQEVVIFHNDQVTPYEYTGIREEVLPESELEKLREGFFVEDEKELYSVLENLS | 0.0782

Just so you know, measured soluble fraction (log2) for "HMATPKYMELVRWINEQIESKNLVPGQKMYSENTLKEMFGVSRQTVRHAIGVLENEGVIRRIQGSGTYIN" came out at -1.51

Just so you know, measured soluble fraction (log2) for "HMTRQNTAVQQSDMAHHKASELTEGMSIVHSHFGRGTIISIETADDPRVTVDFSSEGRKTMLLRFAKFAIE" came out at -0.941

Just so you know, measured soluble fraction (log2) for "HMVSGLEILKIQVQDHPSDWRWALLLARTHYENGNREAAVRTLRPLQRLHPDRLEVMTLWALLA" came out at -0.194

Just so you know, measured soluble fraction (log2) for "HMSTFKSYRGKITASSGVNIRTGAGTNYNKNGALTYNSVVTIVDEKKVSGTTWGKLADGRGWISLDYLKK" came out at -2.04

Just so you know, measured soluble fraction (log2) for "HMNTDVEKQKVFTALFDDYFRRNSMTSLEKQLFLTALKTNFQNAQKTVAKDHPYYATYSLIISAIENYR" came out at -0.525

Just so you know, measured soluble fraction (log2) for "HMSINIDEEKKILGPNADQIIKGITTWGQGLVSKGIWSDADFEEFKIFAATGNGINALNKVRKYY" came out at -0.338

Just so you know, measured soluble fraction (log2) for "HMGGEKLPAPVAGTLLRYSVAEGARVSEGQTVIILESMKMELEINTPKAGVIHFLAAVGAQVAEGDTLAEI" came out at -3.46

Just so you know, measured soluble fraction (log2) for "HMEPPPSYSALLKQISSGKVKELQLVPARREVIVTYPDGRSATVAILANDQQILRTAEAAGTPLLVK" came out at 0.189

Just so you know, measured soluble fraction (log2) for "HMIAITVGSKVRVKAGATFSDGTKPFTEVYNTVYDVQLLSRNGKEARIGIGEQWTGWMYISDLYPADQ" came out at -3.42

Just so you know, measured soluble fraction (log2) for "HMKDDLTWSEGLMPNVVGMGLRDAMFMLENSGLRVNYSGRGKVTRQSPQPGVRIKRGATVAIELRL" came out at -1.89

Just so you know, measured soluble fraction (log2) for "HMPAPKPSGALSLKDEPLYAASDSKRRSGTVSGTYYRWDGENVNGRMRITNKQENIGKAGQVTGWITAH" came out at 0.0409
